Each recorded value in this set is attributed to patent US20120251511A1.

assay: HPLC/EC determination of daidzein and equol levels in blood serum and urine after the BLDG formula; conditions: human, plasma, oral, unbound equol, ng/ml II, Day 1, plasma; BLDG formula regimen equivalent to Example 1
parameter: concentration at 1 day (ng/mL)
Your answer is read as ng/mL, so omit the unit and give the number.

# concentration at 1 day (compound: Oc1ccc([C@H]2COc3cc(O)ccc3C2)cc1 [S-equol] ) is 0

* * *

assay: HPLC/EC determination of daidzein and equol levels in blood serum and urine after the BLDG formula; settings: human, plasma, oral, unbound equol, ng/ml I, Day 7, plasma; BLDG formula regimen equivalent to Example 1
parameter: concentration at 7 day (ng/mL)
Your answer is read as ng/mL, so omit the unit and give the number.

# concentration at 7 day (compound: Oc1ccc([C@H]2COc3cc(O)ccc3C2)cc1 ) is 137

* * *

Test: HPLC/EC determination of daidzein and equol levels in blood serum and urine after the BLDG formula
Settings: human, urine, oral, equol, Mean, Day 21, urine; BLDG formula regimen equivalent to Example 1
Description: The subject's diet was limited to 20 grams of saturated fat per day. The subject also consumed a healthy amount of grains, fruits and vegetables. Blood serum and urine samples were taken on days 1, 7 and 21 and the samples were sent to an independent laboratory for analysis. Equol in the blood serum was tested (untreated) as unbound to sex hormone-binding globulin (SHBG).
parameter: concentration at 21 day (ng/mL)
Your answer is read as ng/mL, so omit the unit and give the number.

# concentration at 21 day (molecule: Oc1ccc([C@H]2COc3cc(O)ccc3C2)cc1 ) is 638

* * *

assay: HPLC/EC determination of daidzein and equol levels in blood serum and urine after the BLDG formula; details: human, plasma, oral, unbound equol, Mean, Day 1, plasma; BLDG formula regimen equivalent to Example 1
parameter: concentration at 1 day (ng/mL)
Your answer is read as ng/mL, so omit the unit and give the number.

# concentration at 1 day (compound: Oc1ccc([C@H]2COc3cc(O)ccc3C2)cc1 ) is 0

* * *

experiment: HPLC/EC determination of daidzein and equol levels in blood serum and urine after the BLDG formula; details: human, urine, oral, equol, ng/ml II, Day 21, urine; BLDG formula regimen equivalent to Example 1
parameter: concentration at 21 day (ng/mL)
Your answer is read as ng/mL, so omit the unit and give the number.

# concentration at 21 day (compound: Oc1ccc([C@H]2COc3cc(O)ccc3C2)cc1 ) is 662

* * *

assay: HPLC/EC determination of daidzein and equol levels in blood serum and urine after the BLDG formula; conditions: human, plasma, oral, unbound equol, Mean, Day 21, plasma; BLDG formula regimen equivalent to Example 1
parameter: concentration at 21 day (ng/mL)
Your answer is read as ng/mL, so omit the unit and give the number.

# concentration at 21 day (molecule: Oc1ccc([C@H]2COc3cc(O)ccc3C2)cc1 [S-equol] ) is 131

* * *

experiment: HPLC/EC determination of daidzein and equol levels in blood serum and urine after the BLDG formula; conditions: human, plasma, oral, unbound equol, ng/ml II, Day 7, plasma; BLDG formula regimen equivalent to Example 1
parameter: concentration at 7 day (ng/mL)
Your answer is read as ng/mL, so omit the unit and give the number.

# concentration at 7 day (compound: Oc1ccc([C@H]2COc3cc(O)ccc3C2)cc1 [S-equol] ) is 117

* * *

assay: HPLC/EC determination of daidzein and equol levels in blood serum and urine after the BLDG formula; conditions: human, urine, oral, equol, ng/ml I, Day 21, urine; BLDG formula regimen equivalent to Example 1
parameter: concentration at 21 day (ng/mL)
Your answer is read as ng/mL, so omit the unit and give the number.

# concentration at 21 day (molecule: Oc1ccc([C@H]2COc3cc(O)ccc3C2)cc1 [S-equol] ) is 613
